# Assay method text: Viability qHTS for spleen associated tyrosine kinase inhibitor (SYKi) naive MV4-11 cells (AID 1963823); further: nearly all actives have a fitted effect of over 40% in size
# Measurement conditions: MV4-11 AML viability, CellTiter-Glo luminescence, 72 h; series mostly up to 45 µM
Results filed as inconclusive are left out. Activity calls are given as the source filed them. The call rests on the fitted dose curve; in most records, active means well fitted cell-killing curve with a large enough effect; inconclusive means small, poorly fitted or top-dose-only effect, or effect the other way; inactive means no such curve, though single readings can be large or run the other way.
Log the outcome using a class from yes (active), no (inactive)

Below are worked cases with known answers.
{"Compound": "C[C@]12C=CC(=O)C=C1CC[C@H]1[C@@H]3C[C@@H](O)[C@](O)(C(=O)CO)[C@@]3(C)C[C@H](O)[C@@]12F", "Group": "no"}
{"Compound": "N[C@@H](Cc1cc(I)c(Oc2cc(I)c(O)c(I)c2)c(I)c1)C(=O)O", "Group": "no"}
{"Compound": "COc1nc(N)nc2c1ncn2[C@@H]1O[C@H](CO)[C@@H](O)[C@@H]1O", "Group": "no"}
{"Compound": "COc1cc(/C=C/C(=O)OC[C@H]2O[C@@H](OC3CC(C)=C(C(=O)O)C(C)(C)C3)[C@H](O)[C@@H](O)[C@@H]2O)cc(OC)c1O (stereo partly specified)", "Group": "no"}

Query: Test call, this compound: CC1=CC2/C=C(\C)CCC(O)C/C=C/C(=O)OC23C(=O)NC(CC(C)C)C3C1C (stereo unspecified)
Response: yes

Query: Test call, this compound: `O=C(O)c1ccccc1-c1ccc(C(F)(F)F)cc1`
Response: no

Query: Test call, this compound: `CN(c1ccc(NC(=O)Nc2ccccc2)cc1)S(=O)(=O)c1cnn(-c2ccc(F)cc2)c1`
Response: yes

* * *

Overview of recorded activity (max response) for various compounds
# Assay method text: Cellular viability qHTS for adrenocortical cancer (ACC) cell line SW-13 (AID 1963989);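 further: cells grown in serum-free medium with ITS supplement; on the % scale 0 is the no-effect control and ±100 the full control effect; nearly all actives have a fitted effect of over 65% in size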
# Measurement conditions: SW-13 ACC cells viability, CellTiter-Glo, 48 h; hits give low values
Records with an inconclusive call do not appear.
# number only, unit % dropped from output

Examples from the recorded data:
{"Compound": "N#Cc1ccc(C(c2ccc(C#N)cc2)n2cncn2)cc1", "Display unit": "%", "Result number": 2.79}
{"Compound": "CN(C)CCC[C@@]1(c2ccc(F)cc2)OCc2cc(C#N)ccc21", "Display unit": "%", "Result number": -9.39}
{"Compound": "O=C1CC(c2ccc(Cl)cc2)CC(=O)N1", "Display unit": "%", "Result number": 13.6}
{"Compound": "COc1cc(N)c(Cl)cc1C(=O)NC1CCN(Cc2ccccc2)CC1", "Display unit": "%", "Result number": -15.7}
{"Compound": "CCC(=O)c1ccc(O)cc1", "Display unit": "%", "Result number": 5.38}

Query: Return activity (max response) (reported value) for this compound: `COc1cccc2c1c(O)c(C(=O)N(C)c1ccc(C(F)(F)F)cc1)c(=O)n2C`
Response: -27.3

Query: Return activity (max response) (reported value) for this compound: CC(Cc1ccc(O)c(O)c1)(NN)C(=O)O (stereo unspecified)
Response: 0.463

Query: Return activity (max response) (reported value) for this compound: `O=C(O)c1nc(=O)[nH]c(=O)[nH]1`
Response: -18

Query: Return activity (max response) (reported value) for this compound: `O=C(O)c1ccc(Nc2ncc3c(n2)-c2ccc(Cl)cc2C(c2c(F)cccc2F)=NC3)cc1`
Response: -30

Query: Return activity (max response) (reported value) for this compound: Cc1oc(-c2ccccc2)nc1CCC(=O)c1ccc(CC2SC(=O)NC2=O)cc1 (stereo unspecified)
Response: -12.1

Query: Return activity (max response) (reported value) for this compound: `[2H]c1nc(C)nc([2H])c1-c1cc(NC[C@@H](C)c2cccc3c(C(=O)NC)ccnc23)ncn1`
Response: 14.2
